*1 amine or outer side, *2 acyl side, *3 side chain or, on linkers, in order; H or OH if unused. Where a SMILES comes first, the peptide text is derived from it. Bridges are numbered along the chain shown (N, C = ends). [ ]: non-standard residue; d: D form. The star is where a group is joined. ξ: configuration not given here. Phe(3,5-F2) = N[C@@H](Cc1cc(F)cc(F)c1)C(=O)O; Pro(4S-Me) = C[C@@H]1CN[C@H](C(=O)O)C1; ξPro(4S-Me) = C[C@@H]1CNC(C(=O)O)C1; NMeaThr = CN[C@H](C(=O)O)[C@H](C)O; NH(4-Et-phenyl) = CCc1ccc(N*)cc1; NH(4-Me-phenyl) = Cc1ccc(N*)cc1; aThr = C[C@H](O)[C@H](N)C(=O)O; NMeA = CN[C@@H](C)C(=O)O; CO = O=C([*:1])[*:2]; ξP = O=C(O)C1CCCN1
Entries with reported MIC on Staphylococcus aureus, USA 300
Dear colleague, please return just the value in µM, with no unit written.

Compound: Cc1ccc(NC(=O)N[C@@H](Cc2cc(F)cc(F)c2)C(=O)N[C@@H]2C(=O)N3CCCC3C(=O)N(C)[C@@H](C)C(=O)N[C@@H](C)C(=O)N3C[C@@H](C)CC3C(=O)O[C@H]2C)cc1 (stereo partly drawn) [Compound 26] ({NH(4-Me-phenyl)-CO}-[Phe(3,5-F2)][aThr][ξP][NMeA]A[ξPro(4S-Me)]; ester 2-C)
Unit String: µM
MIC: 0.39

Please examine the following record next.
// MIC (Staphylococcus aureus, USA 300) for CCc1ccc(NC(=O)N[C@@H](Cc2cc(F)cc(F)c2)C(=O)N[C@@H]2C(=O)N3CCC[C@H]3C(=O)N(C)[C@@H]([C@H](C)O)C(=O)N[C@@H](C)C(=O)N3C[C@@H](C)C[C@H]3C(=O)O[C@H]2C)cc1 [Compound 204] ({NH(4-Et-phenyl)-CO}-[Phe(3,5-F2)][aThr]P[NMeaThr]A[Pro(4S-Me)]; ester 2-C) = 0.098
